# Assay summary: Cytotoxicity against mouse RAW264.7 cells assessed as survival rate at 2.5 uM incubated overnight by CCK-8 assay relative to control
# Assay type: toxicity, cell-based
# Study conditions: read-out: Survival
# strict inequality: viability at 2.5 µM < 90% yields True, everything else yields False

* COc1ccc2c(c1)C(=O)/C(=C/c1ccc(N3CCN(C)CC3)nc1)CC2 | True
* CN1CCN(c2ccc(/C=C3\CCc4ccc(O)cc4C3=O)cn2)CC1 | True
* CN1CCN(c2ccc(/C=C3\CCc4ccc(Br)cc4C3=O)cn2)CC1 | False
* O=C1/C(=C/c2ccc(N3CCOCC3)cc2)CCc2cc(Br)ccc21 | False
